tested on: Plasmodium falciparum; assay: Antimalarial activity against chloroquine-resistant Plasmodium falciparum K1 assessed as incorporation of [3H]hypoxanthine after 48 hr microdilution method; format: functional, organism-based
measure-name: pIC50
Note on pIC50: it is the negative log10 of concentration, concentration in mol/L.

1. C=C[C@H]1CN2CC[C@H]1C[C@@H]2[C@@H](O)c1ccnc2ccccc12 [CINCHONINE] : 7.25

Next up:
Would you kindly share the measured pIC50 for CC(C)(C)NCc1cc(Nc2ccnc3cc(Cl)ccc23)ccc1O [N-TERT-BUTYL-AMODIAQUINE] ?
8.04

====

test system: Plasmodium falciparum; experiment: Antimalarial activity against chloroquine-resistant Plasmodium falciparum K1 assessed as incorporation of [3H]hypoxanthine after 48 hr microdilution method; format: functional, organism-based
# fulfilled = IC50 below 0.01 µM (exclusive); not fulfilled = IC50 at/above 0.01 µM

1. CCNCCCC(C)Nc1ccnc2cc(Cl)ccc12 (stereo unspecified) [DESETHYLCHLOROQUINE] : not fulfilled
2. CCNCc1cc(Nc2ccnc3cc(Cl)ccc23)ccc1O [DESETHYL AMODIAQUINE] : not fulfilled
3. CCN(CC)Cc1cc(Nc2ccnc3cc(Cl)ccc23)cc(-c2ccc(Cl)cc2)c1O [TEBAQUINE] : not fulfilled
4. CCN(CC)Cc1cc(Nc2ccnc3cc(Cl)ccc23)ccc1O : not fulfilled
5. COc1ccc2nc3cc(Cl)ccc3c(Nc3cc(CN4CCCC4)c(O)c(CN4CCCC4)c3)c2n1 [PYRONARIDINE] : fulfilled

Then this compound:
Field: below-cutoff. Rule: recorded IC50 strictly less than 0.01 µM. Subject: O[C@@H](c1cc(C(F)(F)F)nc2c(C(F)(F)F)cccc12)[C@H]1CCCCN1 (relative stereo) [(S,R)-MEFLOQUINE]
fulfilled
